- study system: CYP2B6 (Homo sapiens, UniProt P20813)
- Sequence (P20813 whole entry): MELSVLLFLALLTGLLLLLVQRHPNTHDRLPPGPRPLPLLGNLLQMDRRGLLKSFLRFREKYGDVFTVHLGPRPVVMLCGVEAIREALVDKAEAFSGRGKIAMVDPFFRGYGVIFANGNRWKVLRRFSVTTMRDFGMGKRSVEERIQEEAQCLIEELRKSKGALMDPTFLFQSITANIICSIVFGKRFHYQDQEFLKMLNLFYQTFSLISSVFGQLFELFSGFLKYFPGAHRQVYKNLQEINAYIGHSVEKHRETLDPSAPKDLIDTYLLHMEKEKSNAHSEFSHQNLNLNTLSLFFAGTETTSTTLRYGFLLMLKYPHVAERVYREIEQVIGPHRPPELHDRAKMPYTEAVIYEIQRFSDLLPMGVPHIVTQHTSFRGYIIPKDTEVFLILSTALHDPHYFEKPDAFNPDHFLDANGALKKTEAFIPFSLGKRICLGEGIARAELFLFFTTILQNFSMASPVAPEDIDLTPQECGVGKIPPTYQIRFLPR
- method summary: time-dependent CYP inhibition in human liver microsomes (IC50 shift)
- conditions used: both, pooled human liver microsomes, pH 7.4, % of Control Enzyme Activity, pre-incubation 30 min +NADPH, 3.33 μM
quantity measured: activity at 20 min, 3.33 µM (%)
Give the number; % is assumed, so skip it.

For record S=P(N1CC1)(N1CC1)N1CC1 the listed activity at 20 min, 3.33 µM is 37.6

---

- study system: BCRP (Homo sapiens, UniProt Q9UNQ0)
- Sequence (Q9UNQ0 whole entry): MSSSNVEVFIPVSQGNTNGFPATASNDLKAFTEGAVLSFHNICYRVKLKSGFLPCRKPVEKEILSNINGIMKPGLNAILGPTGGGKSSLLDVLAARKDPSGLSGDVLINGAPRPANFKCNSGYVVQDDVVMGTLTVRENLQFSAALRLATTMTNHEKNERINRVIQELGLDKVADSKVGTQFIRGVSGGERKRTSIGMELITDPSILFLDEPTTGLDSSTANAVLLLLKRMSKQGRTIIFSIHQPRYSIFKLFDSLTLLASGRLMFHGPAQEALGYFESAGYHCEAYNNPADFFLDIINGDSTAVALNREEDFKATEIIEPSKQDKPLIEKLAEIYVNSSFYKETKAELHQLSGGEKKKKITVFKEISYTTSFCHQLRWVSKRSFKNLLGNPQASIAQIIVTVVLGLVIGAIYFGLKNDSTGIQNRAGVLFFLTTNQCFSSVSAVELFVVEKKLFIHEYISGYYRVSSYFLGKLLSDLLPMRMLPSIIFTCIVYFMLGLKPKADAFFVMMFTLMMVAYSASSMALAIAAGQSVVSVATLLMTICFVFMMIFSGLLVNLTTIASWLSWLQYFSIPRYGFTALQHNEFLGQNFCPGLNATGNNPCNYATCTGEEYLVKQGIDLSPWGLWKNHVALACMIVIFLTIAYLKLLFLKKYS
- method summary: BCRP substrate assessment, Caco-2 monolayers
- Type: in vitro ADME
- Design: host or cells: Caco-2 (clone C2BBe1)
- conditions used: human, pH 7.4; Caco-2; Cladribine
quantity measured: efflux ratio at 120 min
Reply with just the number.

The compound identified as Nc1nc(Cl)nc2c1ncn2[C@H]1C[C@H](O)[C@@H](CO)O1 registered its efflux ratio at 120 min at 32
